tested on: 677734-321-R-J1-PDC complex spheroid viability; experiment: Anticancer human tumor 677734-321-R-J1-PDC patient-derived soft tissue sarcoma cell line growth inhibition [POLQ]; conditions: second compound 0.0316 µM; first compound 0.0316 µM; hits give low values
Catalogue of viability, T/C readings, one per entry.
Quick note: give the figure in %, leave out the unit.

See these solved cases before continuing.
CCCS(=O)(=O)Nc1ccc(F)c(C(=O)c2c[nH]c3ncc(-c4ccc(Cl)cc4)cc23)c1F + COC1C(OC(N)=O)C(O)C(Oc2ccc3c(O)c(NC(=O)c4ccc(O)c(CC=C(C)C)c4)c(=O)oc3c2C)OC1(C)C: 103
CC(C)n1c(=O)n(C)c2cnc3cc(F)c(-c4ccc(OCCCN5CCCCC5)nc4)cc3c21 + Cc1cccc(N(C)C(=O)C2C(O)CCN2c2nc(C)cc(C(F)(F)F)c2C#N)c1: 104
CC1COCCN1c1cc(C2(S(C)(=N)=O)CC2)nc(-c2ccnc3[nH]ccc23)n1 (stereo not drawn) + Cc1cccc(N(C)C(=O)C2C(O)CCN2c2nc(C)cc(C(F)(F)F)c2C#N)c1: 106
COc1ccc([C@@H](O)c2cc(-c3ncnc4cc(N5CCOCC5)ccc34)c(F)cc2Cl)nn1 + Cc1cccc(N(C)C(=O)C2C(O)CCN2c2nc(C)cc(C(F)(F)F)c2C#N)c1: 109
CC1COCCN1c1cc(C2(O)CC3CCC(C2)O3)c2cnn(-c3ccn[nH]3)c2n1 (stereo not drawn) + Nc1ccc(C#CCN(C(=O)Cc2ncc(C(F)(F)F)cc2C(F)(F)F)c2ccc(F)cc2)nn1: 36.8

Prompt: Using the record for O=C(Nc1ccc(O)c(NS(=O)(=O)c2ccc(F)cc2)c1)c1ccc(-c2ccccc2)cc1 + Nc1ccc(C#CCN(C(=O)Cc2ncc(C(F)(F)F)cc2C(F)(F)F)c2ccc(F)cc2)nn1 , state its measured viability, T/C.
Completion: 106

Prompt: Using the record for Cn1ncnc1[C@H]1c2n[nH]c(=O)c3cc(F)cc(c23)N[C@@H]1c1ccc(F)cc1 + Cc1cccc(N(C)C(=O)C2C(O)CCN2c2nc(C)cc(C(F)(F)F)c2C#N)c1 , state its measured viability, T/C.
Completion: 104

Prompt: Using the record for O=C(Nc1ccc(O)c(NS(=O)(=O)c2ccc(F)cc2)c1)c1ccc(-c2ccccc2)cc1 + COC1C(OC(N)=O)C(O)C(Oc2ccc3c(O)c(NC(=O)c4ccc(O)c(CC=C(C)C)c4)c(=O)oc3c2C)OC1(C)C , state its measured viability, T/C.
Completion: 112

###

test system: 677734-321-R-J1-PDC complex spheroid viability; experiment: Anticancer human tumor 677734-321-R-J1-PDC cell line growth inhibition [POLQ]; details: second compound 0.316 µM; first compound 0.0316 µM; hits give low values;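 also: spheroids exposed to compounds for one week; 100% = vehicle DMSO treated spheroids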
Catalogue of viability, T/C readings, one per entry.
Quick note: give the figure in %, leave out the unit.

See these solved cases before continuing.
COc1cccc(OCCCN)c1-c1cc(Nc2cnc(C#N)cn2)n[nH]1 + Cc1cccc(N(C)C(=O)C2C(O)CCN2c2nc(C)cc(C(F)(F)F)c2C#N)c1: 6.22
O=C(c1cc(Cc2n[nH]c(=O)c3ccccc23)ccc1F)N1CCN(C(=O)C2CC2)CC1 + COC1C(OC(N)=O)C(O)C(Oc2ccc3c(O)c(NC(=O)c4ccc(O)c(CC=C(C)C)c4)c(=O)oc3c2C)OC1(C)C: 112
C#Cc1c(F)ccc2cc(O)cc(-c3ncc4c(N5CC6CCC(C5)N6)nc(OCC56CCCN5CC(F)C6)nc4c3F)c12 (stereo not given) + Nc1ccc(C#CCN(C(=O)Cc2ncc(C(F)(F)F)cc2C(F)(F)F)c2ccc(F)cc2)nn1: 113
CCCS(=O)(=O)Nc1ccc(F)c(C(=O)c2c[nH]c3ncc(-c4ccc(Cl)cc4)cc23)c1F + Nc1ccc(C#CCN(C(=O)Cc2ncc(C(F)(F)F)cc2C(F)(F)F)c2ccc(F)cc2)nn1: 99

From here, focus on the item given below.
Prompt: Using the record for CCc1cc2c(N3CCc4c(cc(Cn5ccnc5)cc4-c4cn(C)nc4C(F)(F)F)C3=O)ccnc2c(OC)n1 + Cc1cccc(N(C)C(=O)C2C(O)CCN2c2nc(C)cc(C(F)(F)F)c2C#N)c1 , state its measured viability, T/C.
Completion: 100

###

Catalogue of viability, T/C readings, one per entry.
tested on: 677734-321-R-J1-PDC complex spheroid viability; assay: Anticancer human tumor 677734-321-R-J1-PDC cell line growth inhibition [POLQ]; conditions: second compound 1 µM; first compound 0.1 µM; hits give low values;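 also: spheroids exposed to compounds for one week; 100% = vehicle DMSO treated spheroids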
Quick note: give the figure in %, leave out the unit.

Nc1ccn(C2OC(CO)C(O)C2(F)F)c(=O)n1 (stereo not drawn) + Cc1cccc(N(C)C(=O)C2C(O)CCN2c2nc(C)cc(C(F)(F)F)c2C#N)c1: 18.4
CCc1cc2c(N3CCc4c(cc(Cn5ccnc5)cc4-c4cn(C)nc4C(F)(F)F)C3=O)ccnc2c(OC)n1 + Nc1ccc(C#CCN(C(=O)Cc2ncc(C(F)(F)F)cc2C(F)(F)F)c2ccc(F)cc2)nn1: 109

From here, focus on the item given below.
Prompt: Using the record for CC1COCCN1c1cc(C2(O)CC3CCC(C2)O3)c2cnn(-c3ccn[nH]3)c2n1 (stereo not drawn) + Nc1ccc(C#CCN(C(=O)Cc2ncc(C(F)(F)F)cc2C(F)(F)F)c2ccc(F)cc2)nn1 , state its measured viability, T/C.
Completion: 15.9

###

tested on: 677734-321-R-J1-PDC complex spheroid viability; test: Anticancer human tumor 677734-321-R-J1-PDC cell line growth inhibition [POLQ]; conditions: second compound 0.0316 µM; first compound 0.1 µM; hits give low values;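 also: spheroids exposed to compounds for one week; 100% = vehicle DMSO treated spheroids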
readout name: viability, T/C (%)
Quick note: give the figure in %, leave out the unit.

CC1COCCN1c1cc(C2(S(C)(=N)=O)CC2)nc(-c2ccnc3[nH]ccc23)n1 (centres undefined) + Cc1cccc(N(C)C(=O)C2C(O)CCN2c2nc(C)cc(C(F)(F)F)c2C#N)c1: 105
COc1cc(C2c3cc4c(cc3C(OC3OC5COC(C)OC5C(O)C3O)C3COC(=O)C23)OCO4)cc(OC)c1O (centres undefined) + Cc1cccc(N(C)C(=O)C2C(O)CCN2c2nc(C)cc(C(F)(F)F)c2C#N)c1: 101
Nc1ccn(C2OC(CO)C(O)C2(F)F)c(=O)n1 (centres undefined) + COC1C(OC(N)=O)C(O)C(Oc2ccc3c(O)c(NC(=O)c4ccc(O)c(CC=C(C)C)c4)c(=O)oc3c2C)OC1(C)C: 15.3
Cn1ncnc1[C@H]1c2n[nH]c(=O)c3cc(F)cc(c23)N[C@@H]1c1ccc(F)cc1 + COC1C(OC(N)=O)C(O)C(Oc2ccc3c(O)c(NC(=O)c4ccc(O)c(CC=C(C)C)c4)c(=O)oc3c2C)OC1(C)C: 85.7
Nc1ccn(C2OC(CO)C(O)C2(F)F)c(=O)n1 (centres undefined) + Cc1cccc(N(C)C(=O)C2C(O)CCN2c2nc(C)cc(C(F)(F)F)c2C#N)c1: 15.2

Prompt: Using the record for COc1ccc([C@@H](O)c2cc(-c3ncnc4cc(N5CCOCC5)ccc34)c(F)cc2Cl)nn1 + Nc1ccc(C#CCN(C(=O)Cc2ncc(C(F)(F)F)cc2C(F)(F)F)c2ccc(F)cc2)nn1 , state its measured viability, T/C.
Completion: 96.2

Prompt: Using the record for O=C(c1cc(Cc2n[nH]c(=O)c3ccccc23)ccc1F)N1CCN(C(=O)C2CC2)CC1 + Nc1ccc(C#CCN(C(=O)Cc2ncc(C(F)(F)F)cc2C(F)(F)F)c2ccc(F)cc2)nn1 , state its measured viability, T/C.
Completion: 122

Prompt: Using the record for COc1cccc2c1C(=O)c1c(O)c3c(c(O)c1C2=O)CC(O)(C(=O)CO)CC3OC1CC(N)C(O)C(C)O1 (centres undefined) + COC1C(OC(N)=O)C(O)C(Oc2ccc3c(O)c(NC(=O)c4ccc(O)c(CC=C(C)C)c4)c(=O)oc3c2C)OC1(C)C , state its measured viability, T/C.
Completion: 51.5

Prompt: Using the record for COc1cccc2c1C(=O)c1c(O)c3c(c(O)c1C2=O)CC(O)(C(=O)CO)CC3OC1CC(N)C(O)C(C)O1 (centres undefined) + Nc1ccc(C#CCN(C(=O)Cc2ncc(C(F)(F)F)cc2C(F)(F)F)c2ccc(F)cc2)nn1 , state its measured viability, T/C.
Completion: 29.5

###

tested on: 677734-321-R-J1-PDC complex spheroid viability; assay: Anticancer human tumor 677734-321-R-J1-PDC cell line growth inhibition [POLQ]; details: second compound 3.16 µM; first compound 10 µM; hits give low values;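 also: spheroids exposed to compounds for one week; 100% = vehicle DMSO treated spheroids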
readout name: viability, T/C (%)
Quick note: give the figure in %, leave out the unit.

COc1ccc([C@@H](O)c2cc(-c3ncnc4cc(N5CCOCC5)ccc34)c(F)cc2Cl)nn1 + Nc1ccc(C#CCN(C(=O)Cc2ncc(C(F)(F)F)cc2C(F)(F)F)c2ccc(F)cc2)nn1: 43.4

Prompt: Write viability, T/C of CC1COCCN1c1cc(C2(S(C)(=N)=O)CC2)nc(-c2ccnc3[nH]ccc23)n1 (stereo not given) + Cc1cccc(N(C)C(=O)C2C(O)CCN2c2nc(C)cc(C(F)(F)F)c2C#N)c1 ; system used: 677734-321-R-J1-PDC complex spheroid viability
Completion: 37.8
